bone uptake values by entry
- System: LNCaP xenografts
- Test: Ex vivo biodistribution and blocking studies in mice bearing LNCaP xenografts
- Experimental setup: 1 h blocked (coinjection of DCFPyL 0.5 mg)
Lab book: enter the figure in %ID/g, no units written.

Challenge: Name the recorded bone uptake for C[N+](C)(Cc1cn(CC(=O)NCCOCCOCCC(=O)N[C@@H](Cc2ccc3ccccc3c2)C(=O)NCCCC[C@H](NC(=O)N[C@@H](CCC(=O)O)C(=O)O)C(=O)O)nn1)C[B-](F)(F)F [^18F-7] .
Response given: 0.16

Challenge: Looking for the measured bone uptake of O=C(O)CC[C@H](NC(=O)N[C@@H](CCCCNC(=O)c1ccc(Cn2cc(C[n+]3ccc([B-](F)(F)F)cc3)nn2)nc1)C(=O)O)C(=O)O [^18F-4] , can you help?
Response given: 0.56

Challenge: Please look up its bone uptake: C[N+](C)(Cc1cn(CC(=O)NC[C@H]2CC[C@H](C(=O)N[C@@H](Cc3ccc4ccccc4c3)C(=O)NCCCC[C@H](NC(=O)N[C@@H](CCC(=O)O)C(=O)O)C(=O)O)CC2)nn1)C[B-](F)(F)F [^18F-5]
Response given: 0.17

Challenge: Looking for the measured bone uptake of O=C(O)CC[C@H](NC(=O)N[C@@H](CCCCNC(=O)[C@H](Cc1ccc2ccccc2c1)NC(=O)[C@H]1CC[C@H](CNC(=O)Cn2cc(C[n+]3ccc([B-](F)(F)F)cc3)nn2)CC1)C(=O)O)C(=O)O [^18F-6] , can you help?
Response given: 0.57

Challenge: Which bone uptake is reported for this compound? C[N+](C)(Cc1cn(Cc2ccc(C(=O)NCCCC[C@H](NC(=O)N[C@@H](CCC(=O)O)C(=O)O)C(=O)O)cc2)nn1)C[B-](F)(F)F [^18F-2]
Response given: 0.30

Challenge: What bone uptake value was documented for this compound, C[N+](C)(Cc1ccc(C(=O)NCCCC[C@H](NC(=O)N[C@@H](CCC(=O)O)C(=O)O)C(=O)O)cc1)C[B-](F)(F)F [^18F-1] ?
Response given: 0.30
